The values you see were collected from the RNAGym collection of RNA variant scans (doi:10.1021/acssynbio.7b00057).

aptazyme ON/OFF ratio values by entry
B1: Pistol ribozyme (parent)
chain: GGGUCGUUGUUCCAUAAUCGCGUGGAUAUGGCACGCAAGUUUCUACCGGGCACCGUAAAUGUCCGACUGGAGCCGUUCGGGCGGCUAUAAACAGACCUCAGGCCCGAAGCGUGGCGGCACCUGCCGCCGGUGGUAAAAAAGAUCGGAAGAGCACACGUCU

Variants of: B1
procedure_summary: aptazyme ON/OFF ratio, guanine; higher = stronger switching; co-transcriptional cleavage with and without guanine
reported_property: aptazyme ON/OFF ratio

# mutation_descriptor, result
data = [
    ("U7G G9A U11C C12A C13A", 1.1),
    ("U7G U8C G9U", 4.98),
    ("U7G U8C G9U U10C C12G C13G", 1.22),
    ("U7C U8A G9C U10C U11G", 0.891),
    ("U7C U8G U11G C12U C13U", 1.17),
    ("U7A U8C G9U U10A C12A C13A", 1.12),
    ("U7G U8A G9U U11C C12G C13A", 1.09),
    ("U7G U8G G9A U10G C12A C13A", 1.1),
    ("U7C U8C G9U U10C U11C C12A C13U", 1.16),
    ("U7C G9U U10A U11C C12G C13A", 1.16),
    ("U7C U8C U11A", 1.66),
    ("U7A U8A U10G U11G C12G", 1.33),
    ("G9A U10C C12G C13U", 1.31),
    ("U7C U8G G9U U10G U11C", 1.07),
    ("U7C U8G G9C U10G C12U C13U", 1.35),
    ("U7A U8C G9U U10G U11C C12G C13U", 1.21),
    ("U7A U10A C12A C13G", 1.1),
    ("U8C G9U U10C U11C C12G C13A", 1.06),
    ("U7G U8A G9A U10G U11G C12G C13G", 1.16),
    ("U7G U8G U10A U11A C12U C13U", 1.15),
    ("U7A U8C U10G U11G C12A C13A", 1.14),
    ("U7G U8G G9A U10C C12G", 1.28),
    ("U7C U8A G9A C12G C13A", 1.17),
    ("U7G U8G G9U U10C U11G C12U C13G", 1.24),
    ("U7C U8A G9U U10C U11C C12A C13U", 1.12),
    ("G9U U10A U11A C12U", 1.64),
    ("U7C U10C U11C C12G C13G", 1.18),
    ("U8A G9U U11C C12G", 1.08),
    ("U8G G9U U10G C13G", 1.03),
    ("U7A U11G C12A C13G", 1.25),
    ("U7G U8A U10C U11G C12A C13A", 1.19),
    ("U8C U11C", 1.18),
    ("U7A G9U U10A U11C C12A C13G", 1.24),
    ("U7G U8A G9C U11G C13A", 1.06),
    ("U7A U8C G9A U10G U11A", 1.03),
    ("U7C U8A U10G C12A", 1.21),
    ("U8A U10C U11G C12A C13G", 1.23),
    ("U7A U8A G9A C12U C13G", 1.12),
    ("U7C U8C G9A U10C U11A C12G C13G", 1.19),
    ("U7A G9A U10A U11A C12A C13U", 1.32),
    ("U7C U8G G9U U10G C12U", 1.12),
    ("U7G U8G G9C U10G U11A C12U", 1.23),
    ("U7A U8A U10A C12U", 1.11),
    ("U8A G9C U10A U11G C12U C13G", 1.18),
    ("U7C U8C U10A U11G C12G C13G", 1.22),
    ("U7C U8A G9A U10G U11G C12U C13G", 1.14),
    ("U8A G9C U11A C12G C13G", 1.17),
    ("U7G U8C U10C U11A C12U C13U", 1.04),
    ("U8A G9C U10A U11G C12A", 1.06),
    ("U8G G9C U10A C12U C13G", 1.1),
    ("U7A G9A U10A U11C C12U C13G", 1.18),
    ("U7A U8A G9C U10C U11C C12G C13G", 1.04),
    ("U7G G9C U10A C12G C13U", 1.28),
    ("U7C U8A G9C U10A U11A C12A C13U", 1.2),
    ("U7C U8A U11A C12G C13U", 1.12),
    ("U7G U8A G9U U10C U11A C13U", 1.08),
    ("U8G G9C U10C C13A", 1.03),
    ("U7G U8G G9U U11G C12A C13G", 1.12),
    ("U7G U8C G9C U10A U11G C12A", 1.08),
    ("U7A U8C G9C U10G U11G C12G C13G", 1.13),
    ("U7C U8A G9U U10C", 3.35),
    ("G9A U10A U11A C12A C13G", 1.25),
    ("U7A U8A U10G U11A C12U C13G", 1.27),
    ("U7A U8A G9U U10A C12G", 1.41),
    ("U7A U8A G9U U11G C13A", 1.13),
    ("U7G U8C G9U U10A U11A", 4.34),
    ("U7A U8C G9C C13U", 1.07),
    ("U8G G9C U10C U11G C13U", 1.16),
    ("U8G C13U", 1.27),
    ("U8C G9C U10C U11C C12U C13A", 1.05),
    ("U7G G9U U11A C12A C13A", 1.3),
    ("U7G U8C G9U C12A C13U", 1.2),
    ("U7C U8G G9C U10C U11C C12A", 1.04),
    ("U8A G9C U10A U11C C12G C13G", 1.09),
    ("U7A G9U U10C U11A C12A C13U", 1.21),
    ("U7C G9U U10G U11A C12G", 1.27),
]
